tested-system: plasmin (Homo sapiens)
Construct: converts the pro-enzyme plasminogen into its active form plasmin; purchased Chromogenix (Milano, Italy)
Sequence (P00747 581-810 limits assumed): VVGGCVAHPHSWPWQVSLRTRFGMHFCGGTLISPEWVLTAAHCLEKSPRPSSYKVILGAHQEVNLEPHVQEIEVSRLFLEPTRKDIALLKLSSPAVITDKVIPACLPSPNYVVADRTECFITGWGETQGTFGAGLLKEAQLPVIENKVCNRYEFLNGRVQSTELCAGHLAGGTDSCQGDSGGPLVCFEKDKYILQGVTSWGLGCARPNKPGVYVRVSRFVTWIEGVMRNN
Sequence (P00747 97-580 partner limits assumed): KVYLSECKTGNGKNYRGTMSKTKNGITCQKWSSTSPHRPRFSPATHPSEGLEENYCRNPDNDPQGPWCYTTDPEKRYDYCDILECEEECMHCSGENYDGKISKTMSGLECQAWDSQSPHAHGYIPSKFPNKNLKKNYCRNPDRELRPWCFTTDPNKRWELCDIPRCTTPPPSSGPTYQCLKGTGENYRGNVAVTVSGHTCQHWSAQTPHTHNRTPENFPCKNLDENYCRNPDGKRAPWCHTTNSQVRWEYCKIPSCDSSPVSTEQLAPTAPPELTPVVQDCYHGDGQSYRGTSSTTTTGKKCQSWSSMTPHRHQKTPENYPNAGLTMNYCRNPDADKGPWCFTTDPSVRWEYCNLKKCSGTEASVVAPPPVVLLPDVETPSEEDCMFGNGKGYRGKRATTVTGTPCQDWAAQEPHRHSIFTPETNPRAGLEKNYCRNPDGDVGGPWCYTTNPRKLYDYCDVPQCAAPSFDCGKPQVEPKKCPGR
method: Amidolytic activity of plasmin, substrate S-2251
Type: biochemical
measurement-setup: Ki calculated from IC50 by Cheng-Prusoff; triplicate; read-out: Ki ± SD Plasmin S-2251
Experimental: Determination of amidolytic activity was performed as previously described (Okada et al. [1988]). The detailed description of the method is given below. The buffer and the enzyme solution included: • tris buffer—0.6 ml (pH 8.8), […]
Where a SMILES comes first, the peptide text is derived from it. [ ]: non-standard residue; d: D form. The star is where a group is joined. Nva = CCC[C@H](N)C(=O)O; Ms = CS(=O)(=O)*
reported-property: Ki (µM)
Reply with just the number (in µM).

Worked examples, 3 compounds total:
compound="CCC[C@H](NC(=O)[C@H](N)CO)C(=O)N[C@@H](CCCNC(=N)N)C(=O)NCCCCCN [Compound 16, H-D-Ser-NVa-Arg-NH-(CH2)5-NH2]" reported_property=Ki measured_result=137
compound="N=C(N)NCCC[C@H](NC(=O)CNC(=O)[C@@H](CO)NS(=O)(=O)Cc1ccccc1)C(=O)O [Compound 10, PhCH2SO2-D-Ser-Gly-Arg-OH]" reported_property=Ki measured_result=103
compound="CS(=O)(=O)N[C@H](CO)C(=O)NCC(=O)N[C@@H](CCCNC(=N)N)C(=O)O [Compound 12, CH3PhSO2-D-Ser-Gly-Arg-OH] (Ms-[dS]-Gly-Arg-OH; N-terminus and C-terminus assumed)" reported_property=Ki measured_result=10

Looking for the measured Ki of CCC[C@H](NC(=O)[C@@H](CO)NS(C)(=O)=O)C(=O)N[C@@H](CCCNC(=N)N)C(=O)O [Compound 15, CH3PhSO2-D-Ser-NVa-Arg-OH] (Ms-[dS]-[Nva]-Arg-OH; N-terminus and C-terminus assumed) , can you help?
167

Looking for the measured Ki of C[C@H](NC(=O)[C@@H](CO)NS(=O)(=O)Cc1ccccc1)C(=O)N[C@@H](CCCNC(=N)N)C(=O)NCCCCCN [Compound 1, PhCH2SO2-D-Ser-Ala-Arg-NH-(CH2)5-NH2] , can you help?
2

----------
tested-system: plasmin (Homo sapiens)
Construct: converts the pro-enzyme plasminogen into its active form plasmin; purchased Chromogenix (Milano, Italy)
method: Amidolytic activity of plasmin, substrate S-2251
Type: biochemical
measurement-setup: Ki calculated from IC50 by Cheng-Prusoff; triplicate; read-out: Ki ± SD Plasmin S-2251
reported-property: Ki (µM)
Reply with just the number (in µM).

Worked examples, 2 molecules total:
molecule="CC(C)c1cc(C(C)C)c(S(=O)(=O)N[C@H](CO)C(=O)N[C@@H](C)C(=O)N[C@@H](CCCNC(=N)N)C(=O)NCCCCCN)c(C(C)C)c1 [Compound 2]" reported_property=Ki measured_result=90.9
molecule="N=C(N)NCCC[C@H](NC(=O)CNC(=O)[C@@H](CO)NS(=O)(=O)Cc1ccccc1)C(=O)NCCCCCN [Compound 4, PhCH2SO2-D-Ser-Gly-Arg-NH-(CH2)5-NH2]" reported_property=Ki measured_result=58.2

Now take the following molecule into account.
Looking for the measured Ki of CCC[C@H](NC(=O)[C@@H](CO)NS(=O)(=O)c1c(C(C)C)cc(C(C)C)cc1C(C)C)C(=O)N[C@@H](CCCNC(=N)N)C(=O)NCCCCCN [Compound 8] , can you help?
52.7

Data origin, for the record: paper PMC3726930
